molecular target: T1, Human TfR-AVI-His (control) (human, UniProt P02786 89-760); assay: ELISA, hybridoma supernatant
T1 construct: control protein; also called Avi-His-tagged human TfR; human transferrin receptor
T1 sequence (P02786 89-760 limits assumed): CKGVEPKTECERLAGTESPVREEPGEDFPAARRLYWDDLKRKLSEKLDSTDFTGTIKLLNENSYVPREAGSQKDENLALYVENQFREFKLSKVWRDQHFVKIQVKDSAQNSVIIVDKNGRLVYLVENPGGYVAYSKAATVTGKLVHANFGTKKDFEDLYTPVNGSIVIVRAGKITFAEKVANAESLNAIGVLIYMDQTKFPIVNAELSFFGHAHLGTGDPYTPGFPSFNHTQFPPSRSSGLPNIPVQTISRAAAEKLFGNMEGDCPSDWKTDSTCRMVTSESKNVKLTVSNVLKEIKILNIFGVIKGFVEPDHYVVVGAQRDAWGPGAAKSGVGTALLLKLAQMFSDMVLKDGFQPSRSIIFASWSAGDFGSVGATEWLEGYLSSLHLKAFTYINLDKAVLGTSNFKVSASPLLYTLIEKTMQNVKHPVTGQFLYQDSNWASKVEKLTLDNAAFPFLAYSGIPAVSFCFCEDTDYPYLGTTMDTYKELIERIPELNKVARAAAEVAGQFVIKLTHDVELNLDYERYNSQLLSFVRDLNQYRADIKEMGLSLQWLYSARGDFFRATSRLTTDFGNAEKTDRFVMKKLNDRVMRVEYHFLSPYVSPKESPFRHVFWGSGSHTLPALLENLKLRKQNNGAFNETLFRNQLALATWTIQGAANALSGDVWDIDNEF
Assay Metric: OD450
Give bare numbers.

INSERT INTO measurements (binder, recorded_value) VALUES
  ('CD98HC.04.046 (antibody, V domains shown, hybridoma IgG) VH: QIQLVQSGPVLKKPGETVKISCKASGYTFTNFGMNWVKQAPGKGLKWMGWIDTYTREPTYVDDFKGRFAFSLETSVTTAYLQINDLKNEDSATYFCARGESHWYFDVWGAGTTVTVSS VL: QIVLTQSPAIMSASLGERVTMTCIVSSSVSSSYLYWYQQKPGSSPKLWIYSTSILASGVPGRFSGSGSGTSYSLTISSMEAEDAATYYCHQYHRSPPTFGGGTKLEIK', 0.0719);

Exercise: I'd like to know its OD450. The binder in question is CD98HC.04.062 (antibody, V domains shown, hybridoma IgG) VH: EVQLVESGGDLVKPGGSLKLSCTASRFAFSTYDMSWVRQTPEKRLEWVAYISSGGGSTYFPDTVKGRFTISRDNAKNTLYLQMSSLKSEDTAMYYCARQDGHYPWFPYWGQGTLVTVSA VL: DIVMSQSPSSLAVSVGEKVTMSCKSSQSLLYSGNQKTYLAWYQQKPGQSPKPLIYWASTRESGIPDRFTGSGSGTDFTLTISSVKAEDLAVYYCQQYYSYPPTFGAGTKLELK
Solution: 0.0561
